Conditions Used: in DMF, 288.15 K
Property Measured: solubility (mole fraction)
Answer with the value's number alone.

Request: Give the measured solubility (mole fraction) for O=C1NC(=O)c2cc([N+](=O)[O-])ccc21
Result: 0.0586

====

Conditions Used: in 1,4-dioxane, 285.65 K
Property Measured: solubility (mole fraction)
API doc: respond with a numeric literal and nothing else, no unit.

Request: Specify measured solubility (mole fraction) for O=C1NC(=O)c2cc([N+](=O)[O-])ccc21 .
Result: 0.0238

====

Conditions Used: in 2-butanone, 283.15 K
Property Measured: solubility (mole fraction)

Request: Provide measured solubility (mole fraction) value, entry: O=C1NC(=O)c2cc([N+](=O)[O-])ccc21
Result: 0.0195
